The reported measurements were obtained from patent US12227479B2.

assay: in vivo; conditions: male, CD-1, mouse, po, 30 mg/kg
reportedMetric: AUC

*Q* Output measured AUC for this item: COCCOC(=O)C1=C(C)NC(C)=C(C(=O)OC(C)C)C1c1cccc([N+](=O)[O-])c1 (racemic) [nimodipine]
*A* 384 ng·h/mL

---

test: in vivo; details: male, CD-1, mouse, iv, 1 mg/kg
reportedMetric: Cmax
Answer with the number, then the unit.

*Q* Given COCCOC(=O)C1=C(C)NC(C)=C(C(=O)OC(C)C)C1c1cccc([N+](=O)[O-])c1 (racemic) , respond with its Cmax.
*A* 341 ng/mL

---

test: Brain and blood exposure after PO administration to male CD-1 mice; assay type: in vivo, mouse; settings: mouse, brain; PO 30 mg/kg, 1 h, male CD-1 mice; read-out: Brain conc.
Field: concentration at 1 h. Provide a value for each of the compounds that follow.
Answer with the value and then the unit.

{"columns": ["compound", "reportedMetric", "experimentalResult"],
 "data": [
  ["COCCOC(=O)C1=C(C)NC(C)=C(C(=O)OC(C)C)C1c1ccc(C(C)(C)C)cc1 (centres unmarked)", "concentration at 1 h", "604 ng/mL"]
]}

*Q* State its concentration at 1 h: COCCOC(=O)C1=C(C)NC(C)=C(C(=O)OC(C)C)C1c1cccc([N+](=O)[O-])c1 (racemic)
*A* 136 ng/mL

---

assay: Brain and blood exposure after PO administration to male CD-1 mice; format: in vivo, mouse; settings: mouse, brain/blood; PO 30 mg/kg, 3 h, male CD-1 mice; read-out: Brain/Blood ratio
reportedMetric: Kp at 3 h
Give bare numbers.

{"columns": ["compound", "Kp at 3 h"],
 "data": [
  ["COCCOC(=O)C1=C(C)NC(C)=C(C(=O)OC(C)C)C1c1ccc(C(C)(C)C)cc1 (centres unmarked)", 0.7]
]}

Continue with the compound presented below.
*Q* Dear colleague, please send me the reported Kp at 3 h for COCCOC(=O)C1=C(C)NC(C)=C(C(=O)OC(C)C)C1c1cccc([N+](=O)[O-])c1 (racemic) when you can.
*A* 1

---

assay: Blood pharmacokinetics after IV or PO administration to male CD-1 mice; conditions: male, CD-1, mouse, blood, iv, 1 mg/kg
reportedMetric: half-life (min)
One number for each entry, in min.

*Q* Quickly give me recorded half-life for COCCOC(=O)C1=C(C)NC(C)=C(C(=O)OC(C)C)C1c1ccc(C(C)(C)C)cc1 (stereo not shown) [Example 9]
*A* 101

---

assay: Blood pharmacokinetics after IV or PO administration to male CD-1 mice; conditions: male, CD-1, mouse, blood, iv, 1 mg/kg
reportedMetric: Vd (L/kg)
Give bare numbers, in L/kg.

*Q* Dear colleague, please send me the reported Vd for COCCOC(=O)C1=C(C)NC(C)=C(C(=O)OC(C)C)C1c1ccc(C(C)(C)C)cc1 (stereo not shown) when you can.
*A* 8.2

---

assay: in vivo; conditions: male, CD-1, mouse, iv, 1 mg/kg
reportedMetric: Vd (L/kg)
Numbers only, in L/kg.

*Q* Please report the measured Vd for COCCOC(=O)C1=C(C)NC(C)=C(C(=O)OC(C)C)C1c1cccc([N+](=O)[O-])c1 (racemic) [nimodipine]
*A* 3.29

---

assay: in vivo; details: male, CD-1, mouse
reportedMetric: bioavailability
Just the number plus its unit, please.

*Q* Give the measured bioavailability for COCCOC(=O)C1=C(C)NC(C)=C(C(=O)OC(C)C)C1c1cccc([N+](=O)[O-])c1 (racemic)
*A* 7%
